# assay_target: SIRT1 (Homo sapiens, UniProt Q96EB6)
# Sequence (Q96EB6 whole entry): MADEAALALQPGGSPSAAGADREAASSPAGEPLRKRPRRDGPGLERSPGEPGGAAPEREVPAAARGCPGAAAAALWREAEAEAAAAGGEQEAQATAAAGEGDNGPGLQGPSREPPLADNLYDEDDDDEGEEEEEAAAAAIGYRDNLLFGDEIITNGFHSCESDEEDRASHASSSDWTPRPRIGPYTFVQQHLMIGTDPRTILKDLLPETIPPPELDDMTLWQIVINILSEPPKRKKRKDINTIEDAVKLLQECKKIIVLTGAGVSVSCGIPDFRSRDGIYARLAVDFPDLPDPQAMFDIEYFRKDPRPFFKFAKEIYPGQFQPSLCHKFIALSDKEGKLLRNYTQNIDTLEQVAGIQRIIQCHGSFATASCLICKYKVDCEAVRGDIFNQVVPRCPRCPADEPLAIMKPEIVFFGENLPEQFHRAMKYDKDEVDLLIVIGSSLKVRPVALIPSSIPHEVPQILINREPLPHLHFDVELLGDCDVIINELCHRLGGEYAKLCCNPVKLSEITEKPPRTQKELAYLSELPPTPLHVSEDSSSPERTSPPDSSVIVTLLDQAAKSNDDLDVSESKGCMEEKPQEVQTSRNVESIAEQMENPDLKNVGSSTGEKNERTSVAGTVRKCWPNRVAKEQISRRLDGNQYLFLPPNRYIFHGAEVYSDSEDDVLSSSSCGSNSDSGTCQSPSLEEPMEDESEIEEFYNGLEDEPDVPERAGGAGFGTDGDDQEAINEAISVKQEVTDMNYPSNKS
# experimental_details: Mass spectrometry based SIRT1 deacetylase activation assay (acetylated p53-derived peptide substrate)
# Type: biochemical
observable: EC1.5

>>> print(df.to_string())
                                   compound    reported_result
0  CN(C)CCNc1ccc(-c2nc3c(C(=O)Nc4nccs4)cccc3[nH]2)cn1  B (EC1.5 1-25 uM)
1  O=C(NC1CN2CCC1CC2)c1cccc2[nH]c(-c3cccc(C(F)(F)F)c3)nc12 (stereo not drawn)  B (EC1.5 1-25 uM)
2  Cc1nc(C)c(-c2nc3c(C(=O)Nc4ccncc4)cccc3[nH]2)s1   A (EC1.5<1.0 uM)
3  O=C(Nc1nccs1)c1cccc2[nH]c(-c3cccc(N4CCCCC4)c3)nc12  B (EC1.5 1-25 uM)
4  O=C(NC1CCOC1=O)c1cccc2[nH]c(-c3cccc(C(F)(F)F)c3)nc12 (stereo not drawn)  B (EC1.5 1-25 uM)

Pending compound:
# input Let me know recorded EC1.5 for O=C(Nc1nccs1)c1cccc2[nH]c(-c3cccc(OCC(O)CO)c3)nc12 (stereo not drawn) , thanks.
# output A (EC1.5<1.0 uM)

----------
# assay_target: SIRT1 (Homo sapiens, UniProt Q96EB6)
# experimental_details: Mass spectrometry based SIRT1 deacetylase activation assay (acetylated p53-derived peptide substrate)
# Type: biochemical
observable: EC1.5

Some compounds with recorded EC1.5:
>>> print(df.to_string())
                                   compound  observable    reported_result
0  O=C(Nc1ncccn1)c1cccc2[nH]c(-c3cccc(C(F)(F)F)c3)nc12       EC1.5   C (EC1.5 >25 uM)
1  O=C(Nc1nccs1)c1cccc2[nH]c(-c3ccccc3)nc12       EC1.5  B (EC1.5 1-25 uM)
2  O=C(Nc1cccc2[nH]c(-c3cccc(N4CCOCC4)c3)nc12)c1cnccn1       EC1.5  B (EC1.5 1-25 uM)
3  O=C(Nc1cnccn1)c1cccc2[nH]c(-c3cccc(N4CCOCC4)c3)nc12       EC1.5   A (EC1.5<1.0 uM)
4  Cc1cnc(NC(=O)c2cccc3[nH]c(-c4ccnn4-c4ccccc4)nc23)s1       EC1.5   A (EC1.5<1.0 uM)
5  O=C(Nc1nccs1)c1cccc2[nH]c(-c3cccc(-c4nnn[nH]4)c3)nc12       EC1.5   A (EC1.5<1.0 uM)

# input Let me know recorded EC1.5 for O=C(NC1CCOC1=O)c1cccc2[nH]c(-c3ccc(F)cc3C(F)(F)F)nc12 (centres unmarked) , thanks.
# output C (EC1.5 >25 uM)

# input Let me know recorded EC1.5 for `Cc1noc(C)c1NC(=O)c1cccc2[nH]c(-c3cccc(C(F)(F)F)c3)nc12` , thanks.
# output C (EC1.5 >25 uM)

# input Let me know recorded EC1.5 for `O=C(Nc1cccc2[nH]c(-c3cccc(N4CCOCC4)c3)nc12)c1cscn1` , thanks.
# output B (EC1.5 1-25 uM)

# input Let me know recorded EC1.5 for `O=C(Nc1cccc[n+]1[O-])c1cccc2[nH]c(-c3ccc(Cl)cc3C(F)(F)F)nc12` , thanks.
# output B (EC1.5 1-25 uM)

# input Let me know recorded EC1.5 for `Cc1nc(NC(=O)c2cccc3[nH]c(-c4cccc(N5CCOCC5)c4)nc23)sc1C` , thanks.
# output A (EC1.5<1.0 uM)

# input Let me know recorded EC1.5 for `Cc1cc(NC(=O)c2cccc3[nH]c(-c4cccc(C(F)(F)F)c4)nc23)sn1` , thanks.
# output B (EC1.5 1-25 uM)

# input Let me know recorded EC1.5 for `O=C(Nc1nccs1)c1cccc2[nH]c(-c3ccnn3-c3ccccc3)nc12` , thanks.
# output A (EC1.5<1.0 uM)

# input Let me know recorded EC1.5 for `O=C(Nc1ccncc1)c1cccc2[nH]c(-c3cccc(C(F)(F)F)c3)nc12` , thanks.
# output B (EC1.5 1-25 uM)

# input Let me know recorded EC1.5 for `Cc1nc(C)c(-c2nc3c(C(=O)Nc4nccs4)cccc3[nH]2)s1` , thanks.
# output A (EC1.5<1.0 uM)

# input Let me know recorded EC1.5 for O=C(NC1CCOC1=O)c1cccc2[nH]c(-c3ccc(Cl)cc3C(F)(F)F)nc12 (centres unmarked) , thanks.
# output B (EC1.5 1-25 uM)

# input Let me know recorded EC1.5 for `O=C(Nc1nccs1)c1cccc2[nH]c(-c3cc(C(F)(F)F)ccc3F)nc12` , thanks.
# output B (EC1.5 1-25 uM)

----------
# assay_target: SIRT1 (Homo sapiens, UniProt Q96EB6)
# experimental_details: Mass spectrometry based SIRT1 deacetylase activation assay (acetylated p53-derived peptide substrate)
# Assay type: biochemical
observable: EC1.5

>>> print(df.to_string())
                            molecule_smiles  observable    reported_result
0  Cc1cc(C)nc(NC(=O)c2cccc3[nH]c(-c4ccccc4C(F)(F)F)nc23)c1       EC1.5   A (EC1.5<1.0 uM)
1  Cc1nc(C)c(-c2nc3c(C(=O)Nc4cccnc4)cccc3[nH]2)s1       EC1.5   A (EC1.5<1.0 uM)
2  Cc1cc(NC(=O)c2cccc3[nH]c(-c4cccc(C(F)(F)F)c4)nc23)n(C)n1       EC1.5  B (EC1.5 1-25 uM)
3  O=C(Nc1cccc2[nH]c(-c3ccnn3-c3ccccc3)nc12)c1cscn1       EC1.5  B (EC1.5 1-25 uM)
4  O=C(Nc1nccs1)c1cccc2[nH]c(-c3cccc(-c4ccccc4)c3)nc12       EC1.5   C (EC1.5 >25 uM)
5  O=C(Nc1cccnc1)c1cccc2[nH]c(-c3cccc(-c4nnn[nH]4)c3)nc12       EC1.5   A (EC1.5<1.0 uM)

# input Let me know recorded EC1.5 for `Cc1cc(C)nc(NC(=O)c2cccc3[nH]c(-c4ccc(Cl)cc4C(F)(F)F)nc23)c1` , thanks.
# output A (EC1.5<1.0 uM)

# input Let me know recorded EC1.5 for `O=C(Nc1cccnc1)c1cccc2[nH]c(-c3cccc(C(F)(F)F)c3)nc12` , thanks.
# output A (EC1.5<1.0 uM)

# input Let me know recorded EC1.5 for `Cc1csc(NC(=O)c2cccc3[nH]c(-c4cccc(C(F)(F)F)c4)nc23)n1` , thanks.
# output B (EC1.5 1-25 uM)

# input Let me know recorded EC1.5 for `O=C(Nc1ccncc1)c1cccc2[nH]c(-c3cccc(N4CCOCC4)c3)nc12` , thanks.
# output A (EC1.5<1.0 uM)

# input Let me know recorded EC1.5 for `CC1(C)Cc2cccc(-c3nc4c(C(=O)Nc5nccs5)cccc4[nH]3)c2O1` , thanks.
# output B (EC1.5 1-25 uM)

# input Let me know recorded EC1.5 for `O=C(Nc1ccc(Cl)nc1)c1cccc2[nH]c(-c3cccc(C(F)(F)F)c3)nc12` , thanks.
# output B (EC1.5 1-25 uM)

# input Let me know recorded EC1.5 for `O=C(Nc1ccncc1)c1cccc2[nH]c(-c3cc(F)ccc3C(F)(F)F)nc12` , thanks.
# output A (EC1.5<1.0 uM)

# input Let me know recorded EC1.5 for `O=C(Nc1cccnc1)c1cccc2[nH]c(-c3cccc(N4CCCCC4)n3)nc12` , thanks.
# output B (EC1.5 1-25 uM)

----------
# assay_target: SIRT1 (Homo sapiens)
# experimental_details: Mass spectrometry based SIRT1 deacetylase activation assay (acetylated p53-derived peptide substrate)
# Assay type: biochemical
# particulars: 0.5 μM peptide substrate, 120 μM βNAD+, 10 nM SIRT1, 25 min at 25° C., read-out: EC1.5
observable: EC1.5

>>> df
                                   compound  observable  reported_result
0  O=C(Nc1ccc(OCC(O)CO)cc1)c1cccc2[nH]c(-c3ccccc3C(F)(F)F)nc12 (stereo not shown)       EC1.5        < 1000 nM

# input State recorded EC1.5 with SIRT1 (Homo sapiens), entry `O=C(Nc1nccs1)c1cccc2[nH]c(-c3cc(F)ccc3OCCN3CCOCC3)nc12` , no comment.
# output 1000 to 25000 nM

# input State recorded EC1.5 with SIRT1 (Homo sapiens), entry `C[C@@H]1CN(c2cccc(-c3nc4c(C(=O)Nc5ccccn5)cccc4[nH]3)c2)C[C@H](C)O1` , no comment.
# output < 1000 nM

# input State recorded EC1.5 with SIRT1 (Homo sapiens), entry `O=C(NCc1ccccn1)c1cccc2[nH]c(-c3ccccc3C(F)(F)F)nc12` , no comment.
# output 1000 to 25000 nM

# input State recorded EC1.5 with SIRT1 (Homo sapiens), entry `CCCN1CCCc2ccc(-c3nc4c(C(=O)Nc5cccnc5)cccc4[nH]3)cc21` , no comment.
# output 1000 to 25000 nM

# input State recorded EC1.5 with SIRT1 (Homo sapiens), entry `O=C(Nc1cccnc1)c1cccc2[nH]c(-c3ccc(OC4CCNCC4)cc3)nc12` , no comment.
# output 1000 to 25000 nM

# input State recorded EC1.5 with SIRT1 (Homo sapiens), entry `Cc1nc(N2CCOCC2)sc1-c1nc2c(C(=O)Nc3nccs3)cccc2[nH]1` , no comment.
# output < 1000 nM

# input State recorded EC1.5 with SIRT1 (Homo sapiens), entry `C[C@@H]1CN(c2ccc(-c3nc4c(C(=O)Nc5ccccn5)cccc4[nH]3)c(C(F)(F)F)c2)C[C@H](C)O1` , no comment.
# output < 1000 nM

# input State recorded EC1.5 with SIRT1 (Homo sapiens), entry `CC1(C)Cc2cc(-c3nc4c(C(=O)Nc5cccnc5)cccc4[nH]3)ccc2O1` , no comment.
# output 1000 to 25000 nM

# input State recorded EC1.5 with SIRT1 (Homo sapiens), entry `CC(C)(C)c1cccc(-c2nc3c(C(=O)Nc4nccs4)cccc3[nH]2)c1OCCN1CCOCC1` , no comment.
# output 1000 to 25000 nM
